Origin of measurements: patent US8138212B2

Overview of recorded MIC for various compounds
Tested on: Candida albicans (C. albicans—ATCC 10231)
method notes: Synergy test, microtiter plate high resolution MIC assay, yeast
Assay type: cell-based
reported conditions: Candida albicans, ATCC10231, 48 h, C. albicans 10231, PDB medium, 2 days; read-out: QB: MIC of second component (B) acting alone
measure: MIC (µg/mL)

INSERT INTO results (compound, tested_on, measure, test_result) VALUES
  ('CCCCCCCCCC(=O)O [capric acid, decanoic acid]', 'Candida albicans (C. albicans—ATCC 10231)', 'MIC', 2000),
  ('O=P(O)(O)O[C@H]1[C@H](OP(=O)(O)O)[C@@H](OP(=O)(O)O)[C@H](OP(=O)(O)O)[C@@H](OP(=O)(O)O)[C@H]1OP(=O)(O)O [phytic acid, inositol hexaphosphoric acid]', 'Candida albicans (C. albicans—ATCC 10231)', 'MIC', 3000),
  ('CCCCCCCCC(O)CO (stereo not shown) [decylene glycol, 1,2-decanediol]', 'Candida albicans (C. albicans—ATCC 10231)', 'MIC', 2000),
  ('CCC(=O)O [propionic acid, ethanecarboxylic acid]', 'Candida albicans (C. albicans—ATCC 10231)', 'MIC', 2000);
